List of Population Fragmented Nuclei (%) values.
tested on: U2OS; experiment: Multiplex assay against U2OS; format: toxicity, cell-based; details: human, 12 h, 1 µM, compound concentration 1 uM, replicate 2
Report as a plain number; the unit % is understood.

Please review the following examples before continuing.
[
  {
    "compound": "COc1ccc2[nH]c(I)c(CCNC(C)=O)c2c1 [IODOMELATONIN]",
    "metric": "Population Fragmented Nuclei (%)",
    "reading": 11
  },
  {
    "compound": "Cc1cc(=O)n(C)c2cc(N3C(=O)CC[C@H](NS(=O)(=O)CC(C)C)[C@H]3c3ccc(Cl)cc3)ccc12",
    "metric": "Population Fragmented Nuclei (%)",
    "reading": 21
  },
  {
    "compound": "COc1c(Nc2ccc(S(C)(=O)=O)nc2C)ncnc1OC1CCN(C(=O)OC(C)C)CC1 [ADP-597]",
    "metric": "Population Fragmented Nuclei (%)",
    "reading": 13
  }
]

Input: # query: Population Fragmented Nuclei (%) | item `CCc1nn2c(C)cc(C)nc2c1Cc1ccc(-c2nnc(C3CCNCC3)o2)cc1` | system: U2OS
Output: 9

Input: Next record, please: `COc1cc2nc(N3CCN(C(=O)COc4c(OC)cccc4C(C)C)CC3)nc(N)c2cc1OC.Cl.Cl`
Output: 10

Input: Next record, please: COc1cc(Nc2ncc3c(n2)-c2ccc(Cl)cc2C(c2c(F)cccc2OC)=NC3)ccc1C(=O)O [ALISERTIB]
Output: 35

Input: Next record, please: O=C(O)CCC/C=C\CC1C(O)CC(O)C1/C=C/C(O)COc1cccc(Cl)c1 (stereo not drawn) [CLOPROSTENOL]
Output: 11

Input: Next record, please: CC(C)(C)c1ccc(CSc2cnn(C(C)(C)C)c(=O)c2Cl)cc1 [PYRIDABEN]
Output: 11

Input: Next record, please: C=CCN1C[C@H](C(=O)N(CCCN(C)C)C(=O)NCC)C[C@@H]2c3cccc4[nH]cc(c34)C[C@H]21 [CABERGOLINE]
Output: 9

Input: Next record, please: `Cc1sc2c(c1C)C(c1ccc(Cl)cc1)=N[C@H](CC(=O)OC(C)(C)C)c1nnc(C)n1-2`
Output: 16

These entries and their values trace back to ChEMBL document CHEMBL5058577.
